Origin of the recorded values: the supplement of paper PMC6992640

- System: HCI16 (cells of a triple-negative basal-like breast cancer xenograft)
- PROTOCOL_TEXT: cell viability (% of vehicle); higher = less cytotoxic
- CONDITION_SET: 10 µM; 72 h
MEASUREMENT_TYPE: cell viability
Keep it simple and answer with nothing but the number.

>>> measured_result("NC(=O)NO [Hydroxyurea]")
110

Turning now to a further molecule:
Query block: I'd like to know its cell viability. The molecule in question is `FC(F)(F)c1ccc(CNc2ccc(Cc3c[nH]c4ncc(Cl)cc34)cn2)cn1`
Result block: 116

---

Quick list: cell viability per entry.
- System: UCD52 (cells of a triple-negative basal-like breast cancer xenograft)
- PROTOCOL_TEXT: cell viability (% of vehicle); higher = less cytotoxic
- CONDITION_SET: 10 µM; 72 h
Where a name gives a salt, the structure may show the parent alone.
Keep it simple and answer with nothing but the number.

>>> measured_result("CS(=O)(=O)O.Cc1c(O)cccc1C(=O)NC(CSc1ccccc1)C(O)CN1CC2CCCCC2CC1C(=O)NC(C)(C)C (configuration not stated) [Nelfinavir Mesylate]")
48
>>> measured_result("Cc1cnc(Nc2ccc(OCCN3CCCC3)cc2)nc1Nc1cccc(S(=O)(=O)NC(C)(C)C)c1")
196
>>> measured_result("C=C(c1ccc(C(=O)O)cc1)c1cc2c(cc1C)C(C)(C)CCC2(C)C [Bexarotene]")
98
>>> measured_result("CN1C(C(=O)Nc2ccccn2)=C(O)c2ccccc2S1(=O)=O [Piroxicam]")
88.3
>>> measured_result("CC(C)NCC(O)COc1cccc2ccccc12.Cl (configuration not stated) [Propranolol HCl]")
83.3

Query block: I'd like to know its cell viability. The molecule in question is CN1CCC(=C2c3ccccc3CCc3sccc32)CC1.O=C(O)CC(O)C(=O)O [Pizotifen Malate]
Result block: 82.7

Query block: What do we get for COc1c(C)c2c(c(O)c1CC=C(C)CCC(=O)O)C(=O)OC2 [Mycophenolic acid] ?
Result block: 94

Query block: What do we get for CC12CCC(O)CC1=CCC1C2CCC2(C)C(n3cnc4ccccc43)=CCC12 (configuration not stated) ?
Result block: 83.2

Query block: What do we get for COc1ccc(-c2ccc3cc(C(=O)O)ccc3c2)cc1C12CC3CC(CC(C3)C1)C2 [Adapalene sodium salt] ?
Result block: 157

Query block: What do we get for O=C1OC(C(O)CO)C(O)=C1O (configuration not stated) [Vitamin C] ?
Result block: 75

---

Quick list: cell viability per entry.
- System: UCD52
- PROTOCOL_TEXT: cell viability (% of vehicle); higher = less cytotoxic
- CONDITION_SET: 1 µM; 72 h
Keep it simple and answer with nothing but the number.

The examples below pair each entry with its known result.
>>> measured_result("Cc1nc(NC(=O)N2CCCC2C(N)=O)sc1-c1ccnc(C(C)(C)C(F)(F)F)c1 (configuration not stated)")
64.7
>>> measured_result("COCCOC(=O)C1=C(C)NC(C)=C(C(=O)OCC=Cc2ccccc2)C1c1cccc([N+](=O)[O-])c1 (configuration not stated) [Cilnidipine]")
95.4

Query block: Lab request: please report cell viability under test system UCD52 for CC1=CC(=O)c2ccccc2C1=O [Menadione]
Result block: 94.2

Query block: What do we get for COc1cc2nccc(Oc3ccc(NC(=O)NC4CC4)c(Cl)c3)c2cc1C(N)=O [Lenvatinib (E7080)] ?
Result block: 56.2

Query block: What do we get for CNC1CCC(c2ccc(Cl)c(Cl)c2)c2ccccc21.Cl (configuration not stated) [Sertraline HCl] ?
Result block: 78.6

Query block: What do we get for CS(=O)(=O)CCNCc1ccc(-c2ccc3ncnc(Nc4ccc(OCc5cccc(F)c5)c(Cl)c4)c3c2)o1.Cc1ccc(S(=O)(=O)O)cc1.Cc1ccc(S(=O)(=O)O)cc1 [Lapatinib Ditosylate] ?
Result block: 57.1

Query block: What do we get for CSc1ccc2c(c1)N(CCC1CCCCN1C)c1ccccc1S2.Cl (configuration not stated) [Thioridazine HCl] ?
Result block: 82.5

---

- Test system: UCD52
- PROTOCOL_TEXT: cell viability (% of vehicle); higher = less cytotoxic
- CONDITION_SET: 10 µM; 72 h
Criterion: cell viability strictly less than 100. Met: Criterion met. Not met: Criterion not met.

Query block: Determine if `Cn1c([N+](=O)[O-])cnc1COC(N)=O` shows cell viability strictly lower than 100.
Result block: Criterion met

Query block: What do we get for CC(C(=O)O)c1cccc(Oc2ccccc2)c1 (stereo unspecified) [Fenoprofen calcium hydrate] ?
Result block: Criterion met

Query block: What do we get for C#CCNC1CCc2ccccc21.CS(=O)(=O)O (stereo unspecified) [Rasagiline Mesylate] ?
Result block: Criterion not met

Query block: What do we get for CC(C)n1c(C=CC(O)CC(O)CC(=O)O)c(-c2ccc(F)cc2)c2ccccc21 (stereo unspecified) ?
Result block: Criterion met

Query block: What do we get for CCOc1cc(N)c(Cl)cc1C(=O)NCC1CN(Cc2ccc(F)cc2)CCO1.O=C(O)CC(O)(CC(=O)O)C(=O)O (stereo unspecified) [Mosapride Citrate] ?
Result block: Criterion not met

Query block: What do we get for CC(c1ncncc1F)C(O)(Cn1cncn1)c1ccc(F)cc1F (stereo unspecified) ?
Result block: Criterion not met

Query block: What do we get for CC1(C)SC2C(NC(=O)C(NC(=O)N3CCN(S(C)(=O)=O)C3=O)c3ccccc3)C(=O)N2C1C(=O)O.[Na] (stereo unspecified) [Mezlocillin Sodium] ?
Result block: Criterion not met

Query block: What do we get for COC(=O)C1C2CC3c4[nH]c5cc(OC)ccc5c4CCN3CC2CC(OC(=O)c2cc(OC)c(OC)c(OC)c2)C1OC.Cl (stereo unspecified) [Reserpine hydrochloride] ?
Result block: Criterion met

Query block: What do we get for CC(OC1OCCN(Cc2nc(=O)n(P(=O)(O)O)[nH]2)C1c1ccc(F)cc1)c1cc(C(F)(F)F)cc(C(F)(F)F)c1.CNCC(O)C(O)C(O)C(O)CO.CNCC(O)C(O)C(O)C(O)CO (stereo unspecified) [Fosaprepitant dimeglumine salt] ?
Result block: Criterion met

---

- Test system: HCI01 (cells of a triple-negative basal-like breast cancer xenograft)
- PROTOCOL_TEXT: cell viability of combination (% of vehicle); higher = less cytotoxic
- CONDITION_SET: 1 µM; 72 h; partner dose: 10 nM
Quick list: cell viability of combination per entry.

Query block: I'd like to know its cell viability of combination. The compound in question is CC(C)Nc1cc(-c2c[nH]c(C(=O)NC(CO)c3cccc(Cl)c3)c2)c(Cl)cn1 (stereo not drawn) + CC(C)C[C@H](NC(=O)[C@H](CCc1ccccc1)NC(=O)CN1CCOCC1)C(=O)N[C@@H](Cc1ccccc1)C(=O)N[C@@H](CC(C)C)C(=O)[C@@]1(C)CO1
Result block: 94

Query block: What do we get for CO[C@H]1/C=C/O[C@@]2(C)Oc3c(C)c(O)c4c(O)c(c(/C=N/N5CCN(C6CCCC6)CC5)c(O)c4c3C2=O)NC(=O)/C(C)=C\C=C\[C@H](C)[C@H](O)[C@@H](C)[C@@H](O)[C@@H](C)[C@H](OC(C)=O)[C@@H]1C [Rifapentine] + CC(C)C[C@H](NC(=O)[C@H](CCc1ccccc1)NC(=O)CN1CCOCC1)C(=O)N[C@@H](Cc1ccccc1)C(=O)N[C@@H](CC(C)C)C(=O)[C@@]1(C)CO1 ?
Result block: 78.8

Query block: What do we get for N.N.O=C([O-])C1(C(=O)[O-])CCC1.[Pt+2] [Carboplatin] + CC(C)C[C@H](NC(=O)[C@H](CCc1ccccc1)NC(=O)CN1CCOCC1)C(=O)N[C@@H](Cc1ccccc1)C(=O)N[C@@H](CC(C)C)C(=O)[C@@]1(C)CO1 ?
Result block: 81.2

---

- System: WHIM2 (cells of a triple-negative basal-like breast cancer xenograft)
- PROTOCOL_TEXT: cell viability (% of vehicle); higher = less cytotoxic
- CONDITION_SET: 10 µM; 72 h
Quick list: cell viability per entry.
Keep it simple and answer with nothing but the number.

The examples below pair each entry with its known result.
>>> measured_result("NC(=O)c1cccnc1 [Nicotinamide]")
86.9
>>> measured_result("Nc1ccc(S(=O)(=O)Nc2ncccn2)cc1")
101
>>> measured_result("CC(Cc1cc2c(c(C(N)=O)c1)N(CCCO)CC2)NCCOc1ccccc1OCC(F)(F)F (stereo unspecified)")
98
>>> measured_result("COc1ccnc(C[S+]([O-])c2nc3cc(OC(F)F)ccc3[nH]2)c1OC (stereo unspecified)")
100
>>> measured_result("CC1OC(OCC2OC(Oc3c(-c4ccc(O)c(O)c4)oc4cc(O)cc(O)c4c3=O)C(O)C(O)C2O)C(O)C(O)C1O (stereo unspecified)")
122
>>> measured_result("CC(=O)N(c1onc(C)c1C)S(=O)(=O)c1ccc(N)cc1")
106
>>> measured_result("O=C1C=CC=CC1=C1NC(=C2C=CC=CC2=O)N(c2ccc(C(=O)O)cc2)N1")
95.2
>>> measured_result("NC(N)=NS(=O)(=O)c1ccc(N)cc1")
116

Query block: Lab request: please report cell viability under test system WHIM2 for `CCS(=O)(=O)CCn1c([N+](=O)[O-])cnc1C`
Result block: 81.2

Query block: What do we get for C[N+]1(C)[C@@H]2C[C@@H](OC(=O)C(O)(c3cccs3)c3cccs3)C[C@H]1[C@@H]1O[C@@H]12.[Br-] [Tiotropium Bromide] ?
Result block: 94.7

Query block: What do we get for CN(Cc1cnc2nc(N)nc(N)c2n1)c1ccc(C(=O)NC(CCC(=O)O)C(=O)O)cc1 (stereo unspecified) [Methotrexate] ?
Result block: 101

Query block: What do we get for `O=C1CCc2ccc(OCCCCN3CCN(c4cccc(Cl)c4Cl)CC3)cc2N1` ?
Result block: 104

Query block: What do we get for `c1cc(CN2CCCNCCNCCCNCC2)ccc1CN1CCCNCCNCCCNCC1` ?
Result block: 73
